Every entry's value here was drawn from patent US20120129811A1.

Target: proMMP9(67-444;ΔFnII) (SEQ ID NO:5) (Homo sapiens, UniProt P14780, DEL216-390)
Construct: start methionine (N)
Sequence (P14780 with tags, fused parts or gaps DEL216-390): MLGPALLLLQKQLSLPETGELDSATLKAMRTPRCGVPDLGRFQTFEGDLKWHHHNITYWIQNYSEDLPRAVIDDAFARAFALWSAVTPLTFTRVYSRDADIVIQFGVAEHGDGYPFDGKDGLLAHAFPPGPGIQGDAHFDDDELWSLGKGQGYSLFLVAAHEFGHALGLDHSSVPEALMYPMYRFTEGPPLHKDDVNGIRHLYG
Experiment: ThermoFluor binding assay with proMMP9(67-444;ΔFnII)
measured_quantity: Kd (nM)

# example entries with known answers
molecule="CCn1c(C)nc2c3nc(Nc4cc(C(N)=O)ccc4OC(C)C)sc3ccc21 [Example 34]" unit_label=nM endpoint_value=140
molecule="CC(C)Oc1ccc(S(N)(=O)=O)cc1Nc1nc2c(ccc3ncn(CC(F)(F)F)c32)s1 [Example 137]" unit_label=nM endpoint_value=630
molecule="COc1ccc(F)cc1Nc1nc2c(ccc3c2cnn3C)s1 [Example 93]" unit_label=nM endpoint_value=8100
molecule="NS(=O)(=O)c1ccc(OC(F)(F)F)c(Nc2nc3c(ccc4cnccc43)s2)c1 [Example 98]" unit_label=nM endpoint_value=3000

1 = Cc1nc2ccc3sc(Nc4cc(F)ccc4OC(C)C)nc3c2n1CC(F)(F)F [Example 141]
2 = CC(C)Oc1ccc(C(N)=O)cc1Nc1nc2c(ccc3ncccc32)s1 [Example 91]
3 = COc1ccncc1Nc1nc2c(ccc3nc(C)n(CC(F)(F)F)c32)s1 [Example 148]
4 = COc1ccc(S(C)(=O)=O)cc1Nc1nc2c(ccc3cnccc32)s1 [Example 97]
q: Put these in order: smallest Kd first, largest last. Reply with the item labels sorted in the order that was asked for.
a: 3, 4, 2, 1
(3: 290 nM, 4: 1000 nM, 2: 2900 nM, 1: 7500 nM)

###

Biological target: full-length proMMP9(1-707) activation by catalytic MMP3 (Homo sapiens, UniProt P14780, R574P)
Construct: MMP3: E. coli
Sequence (P14780 20-707 R574P): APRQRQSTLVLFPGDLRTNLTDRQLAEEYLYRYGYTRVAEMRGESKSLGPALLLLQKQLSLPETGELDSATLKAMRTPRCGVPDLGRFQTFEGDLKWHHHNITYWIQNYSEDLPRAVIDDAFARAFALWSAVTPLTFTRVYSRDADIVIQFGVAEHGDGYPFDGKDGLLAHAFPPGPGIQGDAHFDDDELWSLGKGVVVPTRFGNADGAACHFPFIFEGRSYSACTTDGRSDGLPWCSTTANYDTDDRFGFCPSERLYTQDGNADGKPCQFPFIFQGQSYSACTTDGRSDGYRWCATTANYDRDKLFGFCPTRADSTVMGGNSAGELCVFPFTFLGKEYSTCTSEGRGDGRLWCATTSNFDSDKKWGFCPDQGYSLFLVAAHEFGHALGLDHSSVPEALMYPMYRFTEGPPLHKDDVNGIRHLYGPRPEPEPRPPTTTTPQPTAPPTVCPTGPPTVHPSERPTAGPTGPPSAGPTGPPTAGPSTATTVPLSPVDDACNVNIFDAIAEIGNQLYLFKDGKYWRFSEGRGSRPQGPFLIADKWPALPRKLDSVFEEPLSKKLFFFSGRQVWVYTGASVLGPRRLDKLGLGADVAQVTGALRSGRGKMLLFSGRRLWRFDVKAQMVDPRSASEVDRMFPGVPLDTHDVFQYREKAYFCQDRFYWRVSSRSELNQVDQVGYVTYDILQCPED
Test: proMMP9/MMP3 P126 Activation Assay
pIC50: −log10 of the molar value.
measured_quantity: pIC50

Consider the following illustrative entries.
molecule="COc1ncccc1Nc1nc2c(ccc3c2ncn3C)s1 [Example 74]" measured_quantity=pIC50 endpoint_value=5.33
molecule="Cc1nc2ccc3sc(Nc4cc(S(N)(=O)=O)ccc4OC(F)(F)F)nc3c2n1C [Example 126]" measured_quantity=pIC50 endpoint_value=6.34
molecule="CCn1c(C)nc2ccc3sc(Nc4cc(F)ccc4OC(C)C)nc3c21 [Example 139]" measured_quantity=pIC50 endpoint_value=6.48
molecule="CC(C)Oc1ccc(S(N)(=O)=O)cc1Nc1nc2c(ccc3ncn(CC(F)(F)F)c32)s1 [Example 137]" measured_quantity=pIC50 endpoint_value=5.96
molecule="Cn1cnc2c3nc(Nc4cc(C(N)=O)ccc4OC(F)(F)F)sc3ccc21 [Example 65]" measured_quantity=pIC50 endpoint_value=6.82

1 = COc1ccc(OC)c(Nc2nc3c(ccc4c3ncn4C)s2)c1 [Example 42]
2 = COc1ccc(P(=O)(O)O)cc1Nc1nc2c(ccc3c2ncn3C)s1 [Example 68]
q: So which one has the bigger pIC50 here, 1 or 2 ? Refer to your chosen entry by its label in the reply.
a: 1

###

Biological target: full-length proMMP9(1-707) activation by catalytic MMP3 (Homo sapiens, UniProt P14780, R574P)
Construct: MMP3: E. coli
Experiment: proMMP9/MMP3 P126 Activation Assay
measured_quantity: IC50 (nM)

Example entries and their recorded answers appear below.
sample_smiles=COc1ccncc1Nc1nc2c(ccc3nc(C)n(CC(F)(F)F)c32)s1 unit_label=nM endpoint_value=220
sample_smiles=CC(C)Oc1ccc(C(N)=O)cc1Nc1nc2c(ccc3[nH]c(Cl)nc32)s1 unit_label=nM endpoint_value=490
sample_smiles=COc1ccc(S(C)(=O)=O)cc1Nc1nc2c(ccc3cnccc32)s1 unit_label=nM endpoint_value=180

A = Cc1nc2c3nc(Nc4cc(C(N)=O)ccc4OC(C)C)sc3ccc2n1C
B = CCOc1ccncc1Nc1nc2c(ccc3nc(C)n(CC)c32)s1
q: From the recorded data, which exceeds the other in IC50: A or B ? Respond using the label that marks the chosen record.
a: B
(B: 150 nM, A: 58 nM)

P = CC(C)Oc1ccc(S(N)(=O)=O)cc1Nc1nc2c(ccc3cnccc32)s1
Q = COc1cc(C(N)=O)ccc1Nc1nc2c(ccc3c2ncn3C)s1
q: Which of these two has the smaller recorded IC50: P or Q ? Refer to your chosen item by its label in the answer.
a: Q

a = CC(C)Oc1ccccc1Nc1nc2c(ccc3c2ncn3C)s1
b = Cc1nc2c(ccc3sc(Nc4cc(C(=O)O)ccc4OC(C)C)nc32)[nH]1
c = COc1c(F)cc(F)cc1Nc1nc2c(ccc3c2ncn3C)s1
d = CC(C)Oc1ccc(F)cc1Nc1nc2c(ccc3ncn(CC(F)(F)F)c32)s1
e = Cn1cnc2c(Nc3nc4c(ccc5c4ncn5C)s3)cccc21
q: Order field: IC50 | Direction: descending (largest first) Give your ranking as a list of the labels in the requested order.
a: e, d, c, a, b

I = CC(C)Oc1ccc(S(N)(=O)=O)cc1Nc1nc2c(ccc3c2cnn3C)s1
II = COc1ccc(S(C)(=O)=O)cc1Nc1nc2c(ccc3c2cnn3CC(C)C)s1
q: Which numeric IC50 is bigger, that of I or that of II ? State your choice using its label.
a: II

P = COc1ccc(S(N)(=O)=O)cc1Nc1nc2c(ccc3c2cnn3C)s1
Q = CCOc1ccncc1Nc1nc2c(ccc3c2ncn3C)s1
q: Hi, I'm comparing P with Q and wondering which one has the bigger number for IC50. Any idea? Record your answer as the label of the chosen record.
a: P
(P: 380 nM, Q: 100 nM)

a = CCn1c(C)nc2ccc3sc(Nc4cc(S(C)(=O)=O)ccc4OC(C)C)nc3c21
b = CCn1cnc2ccc3sc(Nc4cc(C(N)=O)ccc4OC(C)C)nc3c21
c = Cc1[nH]c2c(ccc3sc(Nc4cc(C(N)=O)ccc4OC(C)C)nc32)c1C
q: Arrange these compounds by their IC50, starting with the largest number. Answer by listing the labels in the requested order.
a: c, a, b
(c: 3900 nM, a: 160 nM, b: 100 nM)
